experimental.target: human S1P1 (Homo sapiens (Human), UniProt P21453)
Sequence (P21453 whole entry): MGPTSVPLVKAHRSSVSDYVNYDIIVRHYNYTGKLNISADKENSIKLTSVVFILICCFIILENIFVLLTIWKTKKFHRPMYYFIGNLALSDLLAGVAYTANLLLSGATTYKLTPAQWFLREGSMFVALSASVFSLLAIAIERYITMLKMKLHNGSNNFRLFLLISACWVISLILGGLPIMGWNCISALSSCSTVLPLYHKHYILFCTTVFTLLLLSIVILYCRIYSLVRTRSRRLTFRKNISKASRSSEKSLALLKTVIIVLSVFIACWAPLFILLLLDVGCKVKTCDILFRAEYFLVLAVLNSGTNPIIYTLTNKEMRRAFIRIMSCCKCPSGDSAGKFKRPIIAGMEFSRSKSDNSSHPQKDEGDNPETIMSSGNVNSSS
test.protocol: S1P1 binding assay (33P-S1P radioligand competition, CHO cell membranes)
conditions.used: phosphate examples; read-out: S1P1 Binding
Would you mind telling me the reported IC50 of each entry?

// known answers, use as guide
CCCCO[C@H]1CCc2cc([C@H]3CC[C@](N)(COP(=O)(O)O)C3)ccc2C1 ... < 0.01 µM
CCCCCSC[C@@H]1CCc2cc([C@H]3CC[C@](N)(COP(=O)(O)O)C3)ccc2C1 ... < 0.01 µM
N[C@]1(COP(=O)(O)O)CC[C@H](c2ccc3c(c2)CC[C@@H](COCc2cccs2)C3)C1 ... 0.1 to 1 µM
CCCCOCCO[C@H]1CCc2cc([C@@H]3CC[C@@](N)(COP(=O)(O)O)C3)ccc2C1 ... 0.01 to 0.1 µM
CCCCOC[C@@H]1CCc2cc([C@H]3CC[C@](N)(COP(=O)(O)O)C3)ccc2C1 ... 0.01 to 0.1 µM

Take each entry in turn and give its IC50.
1. CC(C)CCSC[C@H]1CCc2cc([C@H]3CC[C@](N)(COP(=O)(O)O)C3)ccc2C1
2. CC(C)c1ccc(OC[C@@H]2CCc3cc([C@H]4CC[C@](N)(COP(=O)(O)O)C4)ccc3C2)cc1

-- reply
< 0.01 µM
0.1 to 1 µM

get_value(item= CCCCCO[C@@H]1CCc2cc([C@@H]3CC[C@](N)(COP(=O)(O)O)C3)ccc2C1 , readout=IC50) returns 0.01 to 0.1 µM

* * *

experimental.target: S1P1 (membranes prepared from S1P1/CHO cells) (Homo sapiens (Human))
Sequence (P21453 whole entry): as above
test.protocol: Receptor [35S] GTPγS binding assay (S1P1 GTPγS)
Type: biochemical
conditions.used: phosphate examples; read-out: S1P1 GTPγS
observation.type: EC50

Recorded results for 5 compounds are shown here.
COc1ccc(OC[C@@H]2CCc3cc([C@H]4CC[C@](N)(COP(=O)(O)O)C4)ccc3C2)cc1OC ... < 10 nM
CCCCCCCOC1CCc2cc([C@H]3CC[C@](N)(COP(=O)(O)O)C3)ccc2C1 (stereo partly drawn) ... < 10 nM
N[C@]1(COP(=O)(O)O)CC[C@H](c2ccc3c(c2)CC[C@@H](COc2ccc(F)cc2)C3)C1 ... 10 to 100 nM
CC(C)SCC[C@@H]1CCc2cc([C@H]3CC[C@](N)(COP(=O)(O)O)C3)ccc2C1 ... < 10 nM
CCCC/C=C/[C@@H]1CCc2cc([C@H]3CC[C@](N)(COP(=O)(O)O)C3)ccc2C1 [compound 637] ... 10 to 100 nM

Next compound, please.
Record N[C@]1(COP(=O)(O)O)CC[C@H](c2ccc3c(c2)CC[C@@H](Cc2ccccc2)C3)C1 ; system S1P1 (membranes prepared from S1P1/CHO cells) (Homo sapiens (Human)); EC50 = 10 to 100 nM

* * *

experimental.target: human S1P1 (Homo sapiens (Human), UniProt P21453)
test.protocol: S1P1 binding assay (33P-S1P radioligand competition, CHO cell membranes)
conditions.used: phosphate examples; read-out: S1P1 Binding
Procedure: Membranes were prepared from CHO cells expressing human S1P1. Cells pellets (1×10^9 cells/pellet) were suspended in buffer containing 20 mM HEPES (4-(2-hydroxyethyl)-1-piperazineethanesulfonic acid), pH 7.5, 50 mM NaCl, 2 mM EDTA (Ethylenediaminetetraacetic acid) and Protease Inhibitor cocktail (Roche), and disrupted on ice using the Polytron homogenizer. The homogenate was centrifuged at 20,000 rpm (48,000 g) and the supernatant was discarded. […]
pIC50: −log10 of the molar value.
observation.type: pIC50

These solved cases illustrate the format of a correct answer.
CCCC[C@H]1CCCC2(CCc3cc([C@H]4CC[C@](N)(COP(=O)(O)O)C4)ccc3C2)O1 (stereo partly shown) ... 7.00 to 8.00
CCCSCC[C@@H]1CCc2cc([C@H]3CC[C@](N)(COP(=O)(O)O)C3)ccc2C1 ... > 8.00
Cc1ccccc1SC[C@@H]1CCc2cc([C@H]3CC[C@](N)(COP(=O)(O)O)C3)ccc2C1 ... 7.00 to 8.00

Turning now to a further record.
Summary: Cc1ccccc1OC[C@H]1CCc2cc([C@H]3CC[C@](N)(COP(=O)(O)O)C3)ccc2C1 , human S1P1 (Homo sapiens (Human), UniProt P21453), pIC50 = > 8.00
